These data points were gathered from paper PMC10136559.

- target.under.test: human transferrin receptor 1 (hTfR) (Homo sapiens, UniProt P02786 89-760)
- Sequence (P02786 89-760): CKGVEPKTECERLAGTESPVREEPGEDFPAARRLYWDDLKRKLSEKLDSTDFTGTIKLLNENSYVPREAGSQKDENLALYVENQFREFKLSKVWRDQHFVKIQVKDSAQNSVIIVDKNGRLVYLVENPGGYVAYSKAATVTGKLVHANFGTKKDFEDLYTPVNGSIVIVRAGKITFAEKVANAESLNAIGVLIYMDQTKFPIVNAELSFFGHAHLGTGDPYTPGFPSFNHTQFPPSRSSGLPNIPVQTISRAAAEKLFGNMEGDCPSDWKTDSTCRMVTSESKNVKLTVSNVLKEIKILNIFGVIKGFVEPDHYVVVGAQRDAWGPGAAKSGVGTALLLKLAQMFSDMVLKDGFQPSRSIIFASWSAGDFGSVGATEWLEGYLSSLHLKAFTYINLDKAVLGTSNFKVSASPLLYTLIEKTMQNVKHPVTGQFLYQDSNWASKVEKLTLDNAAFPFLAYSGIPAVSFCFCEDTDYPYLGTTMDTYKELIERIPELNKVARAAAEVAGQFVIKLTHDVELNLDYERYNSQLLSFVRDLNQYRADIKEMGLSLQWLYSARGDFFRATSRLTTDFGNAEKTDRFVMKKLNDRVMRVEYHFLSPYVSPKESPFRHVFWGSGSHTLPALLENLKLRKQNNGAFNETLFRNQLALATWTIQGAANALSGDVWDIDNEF
- assay.info: bead-based flow cytometry; apparent Kd; SB1T: 40 mM HEPES, 125 mM NaCl, 5 mM KCl, 1 mM MgCl2, 1 mM CaCl2, 0.05% Tween20, 1 mg/mL salmon sperm DNA; 37 °C, 30 min; pH not stated
- applied.conditions: protein: recombinant; tags: His; chain copies: 2; label: 5' DyLight 650 via thiol C6; hairpin with bulge and loop (predicted)
measured.endpoint: pKd
Units for pKd: none; it is -log10 of a concentration expressed in mol/L.

IN: Which value of pKd has been reported for GGCUUUCGGGCUUUCGGCAACAUCAGCCCCUCAGCC (XNA, 2'-fluoro pyrimidines; 3' inverted dT) [E3 (DL650-E3)] in the records?
OUT: 8.37
